# assay.text: protease stability score; higher = more stable; yeast display proteolysis, trypsin and chymotrypsin
value.type: protease stability score
Field format: numeric only.

For orientation, consider the following solved cases.
sequence_record=DESLEERLDTLRKVEEQGDEDTAREQADPNVKIVVGDRRVHGMDEQLEELRRRVKEARVTIESLSVDAHGDKVDVKVRLTFTIDGRPASVNLHQHYQLQNGKFKHVEARFSEEDRDELQT test_result=0.846
sequence_record=DEELEKHADTLFEAWNHNDPKTVMKMFDPNAHVDVGDHRFRGREDLHDKMSEIQEHARLRVDVKDVKAQGEKATVRFSIEINYNGKPTQDDVVQDMEVRNGRIKRLSYRTDK test_result=-0.13
sequence_record=EEHQTKEWSKMLEVMTKGDKDKFRERADPNVRARVGDRTLHGWENVVRTELRRQHEISIDIHEMDVRSEGDKVVARYEFRQNQNGRPRRRDVTVTFRLHNGRLQEQHVQDTG test_result=0.148
sequence_record=DEETAEQVMRELNRLLKNGNPDEMMTMMDKDARIEVGDKTYHGRDDIRRQNKEDRRRVDRFEVTSVDVRGDKADIDARFQFNGKTKRYQLFAKFHNGRVKHLEIEDK test_result=0.034

With those in mind, consider the next sequence.
sequence DEEKEDKLLLKFARVVLQNNPEDLTRLMDPNAHLEVGDQTWHGREQVSDVLSKFAKRVDEVEVEDYDKRGNDLKVVMTLNINGKNIKVNLTFVVSNGRVTNVRLDPEAQKKIEK , protease stability score observed: 0.37

----------
# assay.text: protease stability score; higher = more stable; yeast display proteolysis, trypsin and chymotrypsin;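 further: log10 excess protease needed over predicted unfolded state with 0 meaning unfolded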
Let's look at some sequences and their measured protease stability score.

For orientation, consider the following solved cases.
sequence_record=DEEDLKHMNENFESGNPDQIVEMFDKDARITVGNKKYRGREDIRKFAEMIRKQVDNRRLKSVEVEGNKFRIQWMFVVNGRRIEAVLHVHAHNGKVKEMSIEVTNPEDQTQYDRDAD test_result=1.66
sequence_record=DEEKLDVARQYFEAVERGDEDRALELVDKDVRVDVGEKRVRGREEAKTQIRREEEEIRLRVEHVDFTAKGDRVRVRVVQVENINGRPVRFHYTMNMTMHNGRIKRIDVQIPEEVQEQLRG test_result=-0.146
sequence_record=DENAQKLAREFMHAVREGNPEEIKKQVDPNAKMVVGDKEITGREEMSRQRERELREIEIDYRSVRVDVSGDKAKLDIKFERNDNGKPQQQQQTMTFVHQGDKIKHLVIKQHS test_result=-0.373

Now, please, on to the next sequence.
Given item DQHVEDVARKFINAMQTGDPDRLKELFDPNARQQVGDTVVTGREHAAKKWKEWVDEMEVHVQLRSIDVRGDKATLRFKLEVRVNGKPSQQDVTMVIHMHNGRAVDVKLSIDERDKKEIDS , the value recorded as its protease stability score is 1.42

----------
# assay.text: protease stability score; higher = more stable; yeast display proteolysis, trypsin and chymotrypsin;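 further: log10 excess protease needed over predicted unfolded state with 0 meaning unfolded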
Parameter: protease stability score. Scope: all listed entries.
Just the number, please, no unit attached.

Would you please look over these solved cases?
sequence_record=DDEDKAREFQRHLLRLVRTNNEKDLHNMADPNVKVVIGDKVYSGRDDVAKAHAELRRNVDHINLEIKSVSHKNGRMKVEAEVIYDHNGKKDKRTMTAVIDRHNGKNVLVHMNIQ value_type="protease stability score" test_result=1.65
sequence_record=DDEELKRQAEEFLKNVKTGNHQELVKQMDPNVKVDVGDKRLQGRETAAHWFVKLVEQVDDFHVQTFDVHGETLEMHFVMEINGHRLQMVLRAEVHNGHIQEMSIDYRDPDRLRKVLS value_type="protease stability score" test_result=0.392

Moving on to another sequence below.
Recorded protease stability score (sequence DEDRMTEAEKILKENNPDQMRDLFDENAKAEIGDNDLHGREHIVEEQRRYNEKVDHVQYHSVTFSNGKMRFDVRASVNGKKFRFQAEFHLDNGKIKHIKIDFRDEEDEKEFKRVVG ): 0.66

----------
# assay.text: protease stability score; higher = more stable; yeast display proteolysis, trypsin and chymotrypsin;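 further: log10 excess protease needed over predicted unfolded state with 0 meaning unfolded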
Would you mind labelling by protease stability score? At or over 0.7 is true (1), under is false (0).

As a guide, the following entries are already answered.
sequence_record=DEHKYRKLAEQINKALEDGDSREMMRLMDKDVKARYGDKTVHGRDDARKLFEDRQDHVDKIQVDDYRVDGDDITVVMTYNHNGRTTVQVLVFRLRNGRIKSASVHSQ category_label="true (1)"
sequence_record=DEHIEEVATKHLKAQHTNDPKQFRDLADKDVEVEVGDKNIHGREQNANEQKRRRDEWEFEMKIDHISAHDGRAILRVKINYVVNGKPINVDAVIRLHAHNGTIKELSVQVDPDQMREVKS category_label="true (1)"
sequence_record=DEKAKHMVERFFTALTTGDEQKLRDNVDPNAKFHYGDKRISGMEDNARTLVEEQKEIRFQYDRMHLDAKGDTIDVKLKYIADVNGKPIDVHVDVKFQFQNGRVQSISERIDPRVEKEMHS category_label="false (0)"

Does protease stability score meet or surpass 0.7 for DEEEIRHINRKLLKALQEGNEHEVAKLADKDASFDIGDKTYNGRHQVRNMIRKIRSQVDHMTVERMSISNGRIFVFIVFEINGRTRRTNQVVEVKNGRIKEVHVKET ? false (0)

Quick check, protease stability score >= 0.7? DEQEVREAAEVIVTGNEEQLRDNADPNVKLQVGDERYHGREHFVRMISKFQKQVDHRSVDHFHVKGDKVRINMVMHINGQHVVLQINAQIHNGRIKSMEIKVRDEKDKRILDQVEG true (1)

Hello, I need to know if DSQKERDLVEHFLRNFRTGDPDKLKTMADPNAHMRVGDKNVHGREDLSRWVQEVRDRADHIDIDTFSVSNGRATATIVMRVDGKEVRFEVVITMENGKIKSMEQQDR has measured protease stability score not below 0.7. Thanks! true (1)

Quick check, protease stability score >= 0.7? DSHAENLLQQVLKALETGDQKRVMELFDPNAKVRYGDKTLHGREEIRKYVKKLKDEMQIRIEVRSVTVQGNKITADVVVRADVDGKPVEMRVRIHVEFENGKIHSLSVDMDPEQVKELEK true (1)

Can DDEVQEVAEQWMRAFNTGDPDTFKDLLDKDVRVQYGDKRLSGKKTLANELQHQKEHQRFKVQHVDIKVTGNKAEINFTLVMDVNGKPVHYTVRANLDVHNGKVKEARFTMDPNTLSKMKR be said to have protease stability score at or above 0.7? false (0)

Entry DHEEVHKLAKKLAEAVVNGNEDRIRKFLKPDVEYKNIDEEYQGKQVAEVIVKTIKTKGVRLKVEEVKVEGDTVEAQYVFQVNGTKVTAHVRAEAKGGRVDKWQVHISDTAKKLRKEG : is its protease stability score no less than 0.7? true (1)

----------
# assay.text: protease stability score; higher = more stable; yeast display proteolysis, trypsin and chymotrypsin;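 further: log10 excess protease needed over predicted unfolded state with 0 meaning unfolded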
value.type: protease stability score
Lab note: record the figure alone, no unit after it.

sequence_record=DEENRHVAQELVKAEKSGDPKRAQELLDPNVRINVGDKTVQGREQHTQELEREKRELRIRIKSMHLKVEGDHVRIEATVSKTQDGQPRESKRSISIHMKNGKAKNIQVTYHK test_result=0.13
sequence_record=DEQIVHRAKEMDKAFNRGDPDLFNKMADENARVEVGDNVLNGRSDYKRYMDQVRKDLNVEIKSVHHQKRPNHARVKVDQVMNHNGQPRRRHIDIKIRAHNGTAKNIHFREDG test_result=-0.326
sequence_record=DESNREVYQKLLNAQTKGDEETAKELADPNASVQIGDKQIHGMDQYVKQMTRDKRRARVRIRDVRVDVQGDNIRVSAHFQEDHNGKPDERTMTQSYKVENGKMKSASVHSLS test_result=-0.124
sequence_record=DDRERAERYLRQVENALHTNDPRQLKNQADKDVKIEIGETDLHGTKDFVKMMKEIINRADHARFTVRSVRRHGDKMRVEFTAEVNHNGRRRTHTIRITLQLENGDVVLQSLRVE test_result=0.302
sequence_record=DDKQQMEEMLQKYQEALDTGDPEKLASLFDENAEVRIGDKVYRGHEDIKRAAKHLLDNVDHIEIRLRSLETRPGRIHARLQMNVRHNGKNTTKTLHVVARKQGDEFVVEHMEVE test_result=2.07
sequence_record=DEDKMLKVAKEAVEAITKGNAEQIKKVGKEGVQVTFGDEKYHGPDQLEEYVKKVKDQGNHIEYKEQEFKGDTATVKTEAEKGDQKVTFEVHYQVKGNKLDRLEVRFDKEQQKKFEQS test_result=-0.256
sequence_record=DEKDVHLARKYYQNFRDGDPDKLKRMADKDAKMSVGDKHLHGMEKIATDLQREHEEMHIDRKIDDVKVNGDKAIVHLKVNINVDGKPTSDSVTVIFKFENGKITTLEYRFDPDKQRKINK test_result=0.294
sequence_record=DDSVMTAVKELLTNIQSGDPDKIQRYLDPNARMQVGDKEIHGRENIAKEIHDQNNEMEVDIEVKHVEVTGDTAIVHADVQEFHNGRPDTFHLVVRAKQDNGKMTSVVFEKRK test_result=-0.268

Lab note: next sequence to report on.
# sequence DDKKRVTQVFREWREALQTGNEEELHKQADKDVKFDVGESEFHGREKFVKHVQERLTQVDHLDIKMHSLKVDNGKADVSVIYRQNHNGKEDETTAVIIMTLSNGHAKIDTVKYG ; its protease stability score = -0.195
